Listing of recorded IC50 by entry.
SYSTEM UNDER TEST: Mcl-1 protein (Homo sapiens)
Sequence (Q07820 whole entry): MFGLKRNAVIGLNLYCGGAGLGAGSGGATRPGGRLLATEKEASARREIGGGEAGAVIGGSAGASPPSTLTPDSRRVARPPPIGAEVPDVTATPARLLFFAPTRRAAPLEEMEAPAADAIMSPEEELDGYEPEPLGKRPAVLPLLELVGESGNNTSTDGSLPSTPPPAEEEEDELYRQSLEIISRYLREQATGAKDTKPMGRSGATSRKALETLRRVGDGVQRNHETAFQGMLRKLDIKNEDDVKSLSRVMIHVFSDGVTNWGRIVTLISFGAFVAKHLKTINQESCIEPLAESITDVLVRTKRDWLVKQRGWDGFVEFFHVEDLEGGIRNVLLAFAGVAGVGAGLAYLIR
METHOD NOTES: Inhibition of Mcl-1 by fluorescence polarization (FP)
Assay type: binding
CONDITION: fluorescein-labelled ligand 1 nM, Mcl-1 protein 5 nM
Write the number in nM without appending the unit.

A selection of reference data follows.
- COMPOUND: "COc1ccccc1-c1nccc(COc2ccccc2C[C@@H](Oc2ncnc3sc(-c4ccc(F)c(O)c4)c(-c4ccc(OCCN5CC[N+](C)(CCCS(=O)(=O)[O-])CC5)c(Cl)c4C)c23)C(=O)O)n1"
  IC50 [nM]: 2.6
- COMPOUND: "COc1ccccc1-c1nccc(COc2ccccc2C[C@@H](Oc2ncnc3sc(-c4ccc(F)c(OCC(F)(F)F)c4)c(-c4ccc(OCCN5CCN(C)CC5)c(Cl)c4C)c23)C(=O)O)n1"
  IC50 [nM]: 3.4
- COMPOUND: "Cc1c(-c2c(-c3ccc(F)cc3)sc3ncnc(OC(Cc4ccccc4OCc4ccnc(-c5ccc(CP(=O)(O)O)cc5)n4)C(=O)O)c23)ccc(OCCN2CCNCC2)c1Cl (centres unmarked)"
  IC50 [nM]: 2.6
- COMPOUND: "CC#Cc1sc2ncnc(O[C@H](Cc3ccccc3OCc3ccnc(-c4ccccc4OC)n3)C(=O)O)c2c1-c1ccc(OCCN2CCN(C)CC2)c(Cl)c1CC"
  IC50 [nM]: 2.6
- COMPOUND: "Cc1c(-c2c(-c3ccc(F)cc3)sc3ncnc(O[C@H](Cc4ccccc4OCc4ccnc(-c5cccc(OS(=O)(=O)O)c5)n4)C(=O)O)c23)ccc(OCCN2CCN(C)CC2)c1Cl"
  IC50 [nM]: 3

Please state recorded IC50 (tested on Mcl-1 protein (Homo sapiens)) of Cc1c(-c2c(-c3ccc(F)cc3)sc3ncnc(O[C@H](Cc4ccccc4OCc4ccnc(-c5cccc(S(=O)(=O)O)c5)n4)C(=O)O)c23)ccc(OCCN2CCN(C)CC2)c1Cl 2.5

Please state recorded IC50 (tested on Mcl-1 protein (Homo sapiens)) of Cc1c(-c2c(-c3ccc(F)cc3)sc3ncnc(O[C@H](Cc4ccccc4OCc4ccnn4CC(F)(F)F)C(=O)O)c23)ccc(OCCN2CCN(C)CC2)c1Cl (atropisomer, axis not shown) 5.9

Please state recorded IC50 (tested on Mcl-1 protein (Homo sapiens)) of COc1c(O)cccc1-c1nccc(COc2ccccc2C[C@@H](Oc2ncnc3sc(-c4ccc(F)cc4)c(-c4ccc(OCCN5CCN(C)CC5)c(Cl)c4C)c23)C(=O)O)n1 0.84
